For each entry below, report its inhibition at 20 min, 10 µM value.
- SUBJECT OF TEST: CYP2C9 (Homo sapiens, UniProt P11712)
- Sequence (P11712 whole entry): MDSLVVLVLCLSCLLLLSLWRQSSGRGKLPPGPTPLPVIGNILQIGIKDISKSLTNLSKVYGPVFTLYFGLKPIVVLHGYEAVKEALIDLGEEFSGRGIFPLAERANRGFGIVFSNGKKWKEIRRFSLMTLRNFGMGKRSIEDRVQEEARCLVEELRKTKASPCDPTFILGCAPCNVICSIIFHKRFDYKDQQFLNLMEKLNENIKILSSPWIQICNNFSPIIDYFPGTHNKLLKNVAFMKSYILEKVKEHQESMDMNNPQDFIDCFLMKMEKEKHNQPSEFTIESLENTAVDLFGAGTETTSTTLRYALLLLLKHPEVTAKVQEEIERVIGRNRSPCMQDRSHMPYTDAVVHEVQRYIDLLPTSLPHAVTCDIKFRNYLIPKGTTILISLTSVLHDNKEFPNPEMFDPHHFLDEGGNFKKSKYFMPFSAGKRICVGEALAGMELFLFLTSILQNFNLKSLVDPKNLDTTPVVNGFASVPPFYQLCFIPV
- EXPERIMENT NOTES: Inhibition of CYP2C9 in human liver microsomes at 10 uM after 20 mins in presence of NADPH by LC-MS/MS analysis
- Format: ADME
Param answer (str): number followed by unit.

Examples with answers:
Cn1c(Nc2c(F)cccc2Cl)nc2cc(C(=O)Nc3ccc(C(F)(F)F)cc3)c3c(c21)CC(C)(C)O3 ... 44%
CC1(C)Cc2c(c(C(=O)Nc3ccc(F)c(C(F)(F)F)c3)cc3nc(Nc4c(F)cccc4Cl)[nH]c23)O1 ... 48%
CC1(C)Cc2c(c(C(=O)Nc3ccccc3C(F)(F)F)cc3nc(Nc4c(Cl)cccc4Cl)[nH]c23)O1 ... 16%
CC1(C)Cc2c(c(C(=O)Nc3c(F)cccc3F)cc3nc(Nc4c(Cl)cccc4Cl)[nH]c23)O1 ... 35%
Cc1ccc(NC(=O)c2cc3nc(Nc4c(F)cccc4Cl)n(C)c3c3c2OC(C)(C)C3)c(F)c1 ... 52%
CC1(C)Cc2c(c(C(=O)Nc3ccc(C(F)(F)F)cn3)cc3nc(Nc4c(Cl)cccc4Cl)[nH]c23)O1 ... 56%

Provide reported inhibition at 20 min, 10 µM for each item, in the same order as listed.
1. Cn1c(Nc2c(F)cccc2Cl)nc2cc(C(=O)Nc3ccc(C(F)(F)F)cn3)c3c(c21)CC(C)(C)O3
2. Cc1cccc(Cl)c1Nc1nc2cc(C(=O)Nc3ccc(C(F)(F)F)cc3)c3c(c2[nH]1)CC(C)(C)O3
3. Cc1cccc(Cl)c1Nc1nc2cc(C(=O)Nc3cc(C4CC4)ccc3F)c3c(c2[nH]1)CC(C)(C)O3
4. CC1(C)Cc2c(c(C(=O)Nc3cc(C4CC4)ccc3F)cc3nc(Nc4c(Cl)cccc4Cl)[nH]c23)O1
5. Cc1cccc(Cl)c1Nc1nc2cc(C(=O)Nc3ccc(F)c(C(F)(F)F)c3)c3c(c2[nH]1)CC(C)(C)O3
6. CC1(C)Cc2c(c(C(=O)Nc3cc(C(F)F)ccc3F)cc3nc(Nc4c(F)cccc4Cl)[nH]c23)O1
7. CC1(C)Cc2c(c(C(=O)Nc3cc(C4CC4)ccc3F)cc3nc(Nc4c(F)cccc4Cl)[nH]c23)O1

[reply]
1. 52%
2. 46%
3. 12%
4. 26%
5. 47%
6. 42%
7. 42%

----------
- EXPERIMENT NOTES: Protein binding in human plasma at 10 uM after 5 hrs by equilibrium dialysis based LC-MS/MS analysis
- Type: ADME, cell-free
- RUN PARAMETERS: read-out: PPB (converted)
Please respond with reported fraction unbound at 5 h, 10 µM for every item in the list.
Numbers only.

Examples with answers:
Cc1cccc(Cl)c1Nc1nc2cc(C(=O)Nc3cc(C(F)F)ccc3F)c3c(c2[nH]1)CC(C)(C)O3 ... 0.0008
Cc1cccc(Cl)c1Nc1nc2cc(C(=O)Nc3cc(C(F)(F)F)ccc3F)c3c(c2[nH]1)CC(C)(C)O3 ... 0.0003

Here is the next item to consider.
The compound listed as CC1(C)Cc2c(c(C(=O)Nc3cc(C(F)(F)F)ccc3F)cc3nc(Nc4c(F)cccc4Cl)[nH]c23)O1 shows fraction unbound at 5 h, 10 µM equal to 0.0004
